As shown below, each of these compounds has a reported Kd value.
# target of assay: Peptidyl-prolyl cis-trans isomerase FKBP1A (Homo sapiens) (UniProt P62942)
# Sequence (P62942 whole entry, looked up): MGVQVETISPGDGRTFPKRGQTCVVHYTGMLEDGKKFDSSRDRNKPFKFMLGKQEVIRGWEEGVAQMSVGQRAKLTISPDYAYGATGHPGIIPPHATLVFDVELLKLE
# measurement protocol: small-molecule binding to FKBP12 – biophysical, NMR detection (AID 608)
# experimental context: purified FKBP12
The source made the active and inactive calls. How the calls were made is not given here.

Example cases with answers are listed next.
Quick note, Kd for CC1=CC(C)C(C(=O)O)C(C(=O)N2CCN(C)CC2)C1 (configuration not stated) landed at > 4 mM (inactive)

Quick note, Kd for CC(C)[C@@H]1CC[C@@H](C)C[C@H]1O landed at > 4 mM (inactive)

Quick note, Kd for COC(=O)C[C@@H]1C2(C)C(=O)[C@@H](CC3C2CC[C@]2(C)C3CC(=O)O[C@H]2c2ccoc2)[C@H](OC(C)=O)C1(C)C (some centres not stated) landed at > 4 mM (inactive)

Quick note, Kd for O=c1oc2ccccc2cc1O landed at > 4 mM (inactive)

Quick note, Kd for O=C(Nc1nnc(-c2cccnc2)o1)c1ccccc1F landed at > 4 mM (inactive)

***
Quick note, Kd for O=c1oc(-c2ccccc2)nc2c1cnn2-c1ccccc1 landed at > 4 mM (inactive)

Quick note, Kd for NC(=O)CSc1ccc(-c2ccccc2)nn1 landed at > 4 mM (inactive)

Quick note, Kd for Nc1nc(-c2ccc(F)c(F)c2)cs1 landed at > 4 mM (inactive)

Quick note, Kd for CN1CCN(c2ccc(N)cc2)CC1 landed at > 4 mM (inactive)

Quick note, Kd for O=C(O)C1CSC(c2ccc(Cl)cc2)N1 (configuration not stated) landed at > 4 mM (inactive)

Quick note, Kd for Cc1nnsc1C(=O)Nc1ccc(C(N)=O)cc1 landed at > 4 mM (inactive)

Quick note, Kd for O=c1cccc2n1C[C@H]1CNCC2C1 landed at > 4 mM (inactive)

====

As shown below, each of these molecules has a reported Kd value.
# target of assay: Peptidyl-prolyl cis-trans isomerase FKBP1A (Homo sapiens)
# measurement protocol: small-molecule binding to FKBP12 – biophysical, NMR detection (AID 608)
# experimental context: purified FKBP12
Calls of active or inactive are those of the source. How the calls were made is not given here.

Quick note, Kd for CN1C2CC(OC(=O)[C@H](CO)c3ccccc3)C[C@H]1[C@H]1OC21 (some centres undefined) landed at > 4 mM (inactive)

***
Quick note, Kd for Cn1ncc(C(=O)O)c1-c1ccccc1 landed at > 4 mM (inactive)

Quick note, Kd for S=c1[nH]c2cccnc2[nH]1 landed at > 4 mM (inactive)

====

As shown below, each of these molecules has a reported Kd value.
# target of assay: Peptidyl-prolyl cis-trans isomerase FKBP1A (Homo sapiens) (UniProt P62942)
# measurement protocol: small-molecule binding to FKBP12 – biophysical, NMR detection (AID 608)
# experimental context: purified FKBP12
Active and inactive are the calls of the source. How the calls were made is not given here.

Example cases with answers are listed next.
Quick note, Kd for O=C(O)CC1Sc2ccccc2NC1=O (centres undefined) landed at > 4 mM (inactive)

Quick note, Kd for Cc1nn2c3ccccc3nc2n(Cc2ccccc2)c1=O landed at > 4 mM (inactive)

Quick note, Kd for CC(=O)C1CCC2C3CCC4C[C@H](O)CCC4(C)C3C[C@H](O)C12C (some centres undefined) landed at > 4 mM (inactive)

Quick note, Kd for NN1C(=O)CSC1=Nc1ccccc1 landed at > 4 mM (inactive)

Quick note, Kd for O=C(O)CCNc1n[nH]c(=O)[nH]c1=O landed at > 4 mM (inactive)

***
Quick note, Kd for Cn1nc(C(C)(C)C)cc1N landed at > 4 mM (inactive)

Quick note, Kd for NCc1ccc(S(N)(=O)=O)cc1 landed at > 4 mM (inactive)

Quick note, Kd for CC(=O)Oc1cccc2ccc(=O)[nH]c12 landed at > 4 mM (inactive)

Quick note, Kd for Nc1cccc(-n2cnnn2)c1 landed at > 4 mM (inactive)

Quick note, Kd for O=C1C2CCCCC2C(=O)N1c1ccc(O)cc1 (centres undefined) landed at > 4 mM (inactive)

Quick note, Kd for O=C(NCc1ccc2c(c1)OCO2)c1cccs1 landed at > 4 mM (inactive)

Quick note, Kd for O=C1CCC(=O)N1CNc1ccccc1 landed at > 4 mM (inactive)

Quick note, Kd for CN1CCC(N2CCOCC2)CC1 landed at > 4 mM (inactive)

Quick note, Kd for COc1ccc(N2C(=N)C(C)(C)NC2=O)cc1 landed at > 4 mM (inactive)

====

# target of assay: UniProtKB P62942
# measurement protocol: small-molecule binding to FKBP12 – biophysical, NMR detection (AID 608)
# experimental context: purified FKBP12
The source made the active and inactive calls. The rule behind the calls is not given here.
Choose one outcome from this list and give only that: TRUE = active, FALSE = inactive

query: Short answer needed: outcome of this test for Nc1ncnc(Nc2ccccc2C(F)(F)F)n1 ?
result: FALSE

query: Short answer needed: outcome of this test for N#Cc1cnc(N2CCCCC2)nc1N ?
result: FALSE

query: Short answer needed: outcome of this test for COC(=O)C[C@H]1C(C)(C)C(OC(C)=O)[C@]2(O)C=C3C(CC[C@]4(C)C3CC(=O)O[C@H]4c3ccoc3)C1(C)C2=O (stereo partly specified) ?
result: FALSE

query: Short answer needed: outcome of this test for CC(C)n1c(Nn2cnnc2)nc2ccccc21 ?
result: FALSE

query: Short answer needed: outcome of this test for CC(=O)Nc1ccc(S(=O)(=O)NC(N)=O)cc1 ?
result: FALSE

query: Short answer needed: outcome of this test for O=C(O)c1ccc(N2CCOCC2)nc1 ?
result: FALSE

query: Short answer needed: outcome of this test for O=C(NCc1cccc(Cl)c1)c1cccnc1 ?
result: FALSE

====

# target of assay: Peptidyl-prolyl cis-trans isomerase FKBP1A (Homo sapiens)
# measurement protocol: small-molecule binding to FKBP12 – biophysical, NMR detection (AID 608)
# experimental context: purified FKBP12
Calls of active or inactive are those of the source. How the calls were made is not given here. Where a SMILES comes first, the peptide text is derived from it.
Choose one outcome from this list and give only that: Yes = active, No = inactive

query: Short answer needed: outcome of this test for CC(C)c1ccccc1OCC(=O)N1CCOCC1 ?
result: No

query: Short answer needed: outcome of this test for NS(=O)(=O)c1ccc(N=Cc2cccs2)cc1 ?
result: No

query: Short answer needed: outcome of this test for Cc1ccc(NS(=O)(=O)N2CCOCC2)c(C)c1 ?
result: No

query: Short answer needed: outcome of this test for Cc1c(C(=O)Nc2ccccc2)sc(N)c1C(N)=O ?
result: No

***
query: Short answer needed: outcome of this test for O=[N+]([O-])c1cccc(CN2CCC(O)CC2)c1 ?
result: No

query: Short answer needed: outcome of this test for OCc1ccc2c(c1)CCO2 ?
result: No

query: Short answer needed: outcome of this test for CSc1ccccc1NC(=O)c1ccco1 ?
result: No

query: Short answer needed: outcome of this test for CC(=O)N[C@@H](CC(=O)O)C(=O)N[C@@H](CCC(=O)O)C(=O)O (Ac-Asp-Glu-OH) ?
result: No

query: Short answer needed: outcome of this test for CCOC(=O)c1c[nH]c2c(F)cccc2c1=O ?
result: No

query: Short answer needed: outcome of this test for Cc1ccc(SCCN2C(=O)NC(C)(C)C2=O)cc1 ?
result: Yes

query: Short answer needed: outcome of this test for COC(=O)N(c1ccccc1)P1(=S)OCCO1 ?
result: No

query: Short answer needed: outcome of this test for Cc1cc(C(=O)Nc2cccnc2)cs1 ?
result: No

query: Short answer needed: outcome of this test for O=C(NC12CC3CC(CC(C3)C1)C2)c1cnccn1 ?
result: No

====

# target of assay: Peptidyl-prolyl cis-trans isomerase FKBP1A (Homo sapiens)
# measurement protocol: small-molecule binding to FKBP12 – biophysical, NMR detection (AID 608)
# experimental context: purified FKBP12
Active and inactive are the calls of the source. No rule for the calls is given here.
As shown below, each of these compounds has a reported Kd value.

Example cases with answers are listed next.
Quick note, Kd for Cc1nc2ccccc2c(=O)[nH]1 landed at > 4 mM (inactive)

Quick note, Kd for CSc1nnc2c(n1)OC(C)=Nc1ccccc1-2 landed at > 4 mM (inactive)

Quick note, Kd for O=C(O)c1cc2ccccc2[nH]1 landed at > 4 mM (inactive)

Quick note, Kd for Fc1ccc(F)c(CN2CCN(c3ncccn3)CC2)c1 landed at > 4 mM (inactive)

Quick note, Kd for OCc1ccc2occc2c1 landed at > 4 mM (inactive)

Quick note, Kd for Clc1ccc(-n2ccnc2)nn1 landed at > 4 mM (inactive)

Would you kindly look at the next entry?
Quick note, Kd for Nc1cc(=O)[nH]c(SCC(=O)Nc2nccs2)n1 landed at > 4 mM (inactive)

====

# target of assay: Peptidyl-prolyl cis-trans isomerase FKBP1A (Homo sapiens) (UniProt P62942)
# measurement protocol: small-molecule binding to FKBP12 – biophysical, NMR detection (AID 608)
# experimental context: purified FKBP12
Activity calls are given as the source filed them. The rule behind the calls is not given here.
Choose one outcome from this list and give only that: active, inactive

Some solved cases for reference:
query: Short answer needed: outcome of this test for COc1c2c(cc3c1OCO3)C13C=C[C@H](OC)CC1N(C2)CC3O (some centres not stated) ?
result: inactive

query: Short answer needed: outcome of this test for Cc1sc2nc(-c3ccco3)oc(=O)c2c1C ?
result: inactive

query: Short answer needed: outcome of this test for CC(=O)c1ccc(NC(=S)N2CCC(O)CC2)cc1 ?
result: inactive

Now for another entry.
query: Short answer needed: outcome of this test for O=S(=O)(N1CCOCC1)n1cnc2ccccc21 ?
result: inactive
